Biological target: Perforin-1 (Homo sapiens)
Assay: Inhibition of perforin released from human KHYG-1 NK cells assessed as inhibition of perforin-mediated lysis of human K562 cells at 20 uM by [51Cr] release assay in absence of serum
Assay type: cell-based
I'd be grateful if you could share measured inhibition for these entries.
Your answer should be a number followed by the unit of measure.

Exam item: inhibition lookup needed for `O=C1NC(=S)N/C1=C/c1ccc(-c2ccc3c(c2)COC3=O)cc1` , thanks.
Marked response: 28%

Exam item: Also, `O=C1NC(=S)N/C1=C/c1ccc2ccc(-c3ccc4c(c3)COC4=O)cc2n1` please.
Marked response: 52%

Exam item: Now give it for `O=C1NC(=S)N/C1=C/c1cc2ccc(-c3ccc4c(c3)COC4=O)cc2[nH]1` too.
Marked response: 100%

Exam item: Now the compound `O=C1NC(=S)NC(=O)C1=Cc1ccc(-c2ccc3c(c2)COC3=O)s1`
Marked response: 91%

Exam item: Moving on to `O=C1NC(=S)N/C1=C/c1cc2ccc(-c3ccc4c(c3)COC4=O)cc2s1`
Marked response: 46%

Exam item: What would you report for `O=C1NC(=S)N/C1=C/c1cc(-c2ccc3c(c2)COC3=O)no1` ?
Marked response: 41%

Exam item: Another compound to check: `O=C1NC(=S)N/C1=C/c1cc(-c2ccc3c(c2)COC3=O)cs1`
Marked response: 49%

Exam item: # repeat for `Cc1cc2c(c(=S)[nH]1)C(=O)OC2=Cc1csc2ccccc12`
Marked response: 41%

Exam item: Then this compound: `O=C1NC(=S)N/C1=C/c1csc(-c2ccc3c(c2)COC3=O)n1`
Marked response: 11%

Exam item: Try the compound `O=C1NC(=O)C(=Cc2ccc(-c3ccc4c(c3)COC4=O)s2)C(=O)N1`
Marked response: 52%

Exam item: Try the compound `O=C1NC(=S)N/C1=C/c1ccc2cc(-c3ccc4c(c3)COC4=O)ccc2n1`
Marked response: 60%

Exam item: Follow-up entry: `O=C1NC(=S)N/C1=C/c1cnc(-c2ccc3c(c2)COC3=O)s1`
Marked response: 45%

Exam item: Proceed to `O=C1NC(=O)/C(=C\c2ccc(-c3ccc4c(c3)COC4=O)s2)S1`
Marked response: 36%

Exam item: One more compound: `O=C1NC(=S)N/C1=C/c1cc(-c2ccc3c(c2)COC3=O)ns1`
Marked response: 45%

Exam item: Request: `O=C1NC(=S)N/C1=C/c1cc2cc(-c3ccc4c(c3)COC4=O)ccc2o1`
Marked response: 61%

Exam item: Next: `O=C1NC(=S)N/C1=C/c1ccc(-c2ccc3c(c2)COC3=O)cn1`
Marked response: 37%

Exam item: Repeat for the following compound: `O=C1NC(=S)N/C1=C/c1ccc(-c2ccc3c(c2)COC3=O)o1`
Marked response: 74%

Exam item: Here is the next compound: `O=C1NC(=S)N/C1=C/c1cc2cc(-c3ccc4c(c3)COC4=O)ccc2[nH]1`
Marked response: 91%

Exam item: Check `O=C1NC(=O)/C(=C\c2ccc(-c3ccc4c(c3)COC4=O)s2)N1` too.
Marked response: 54%

Exam item: Follow-up item: `O=C1NC(=S)N/C1=C/c1nc(-c2ccc3c(c2)COC3=O)cs1`
Marked response: 30%

Exam item: Also need `O=C1NC(=S)N/C1=C/c1cc2cc(-c3ccc4c(c3)COC4=O)ccc2s1` , thanks.
Marked response: 51%

Exam item: What do you have for `O=C1NC(=S)N/C1=C/c1ccc(-c2ccc3c(c2)COC3=O)s1` ?
Marked response: 53%
